- Target or test system: UniProtKB A0A0H2UNK6
- Assay details: Initial-rate inhibition of S. pneumoniae mevalonate kinase
- Assay type: biochemical
Measurement label: Ki (nM)

> print(dat)
                                   compound  target.or.test.system  reported.measurement
1  C[C@@](O)(CCOP(=O)(O)OP(=O)(O)O)CC(=O)O [DPM, Diphosphomevalonate]   UniProtKB A0A0H2UNK6                   500

###

- Target or test system: mevalonate kinase (MK) (Streptococcus pneumoniae, UniProt A0A0H2UNK6)
- Sequence (A0A0H2UNK6 entry or part of it): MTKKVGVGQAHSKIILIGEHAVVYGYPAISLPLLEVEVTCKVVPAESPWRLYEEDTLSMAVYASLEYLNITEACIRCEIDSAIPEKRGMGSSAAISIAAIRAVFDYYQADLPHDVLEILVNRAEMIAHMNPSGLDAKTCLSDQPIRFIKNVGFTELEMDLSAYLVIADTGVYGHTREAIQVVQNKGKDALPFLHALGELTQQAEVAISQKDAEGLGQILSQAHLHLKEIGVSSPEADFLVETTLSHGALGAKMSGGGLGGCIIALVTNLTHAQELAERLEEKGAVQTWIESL
- Assay details: Equilibrium binding of DPM to MK
- Conditions: affinity of DPM for apo (E) form of the enzyme, apo (E)
Measurement label: Kd (nM)

> print(dat)
                                   molecule                     target.or.test.system  units.of.measure  reported.measurement
1  C[C@@](O)(CCOP(=O)(O)OP(=O)(O)O)CC(=O)O [DPM, Diphosphomevalonate]  mevalonate kinase (MK) (Streptococcus pneumoniae, UniProt A0A0H2UNK6)                nM                   630

###

- Target or test system: mevalonate kinase (MK) (Streptococcus pneumoniae, UniProt A0A0H2UNK6)
- Assay details: Initial-rate inhibition of S. pneumoniae mevalonate kinase
- Assay type: biochemical
- Conditions: MK from S. pneumoniae; read-out: Ki (MK)
pKi: −log10 of the molar value.
Measurement label: pKi

> print(dat)
                                   molecule  reported.measurement
1  O=C(O)CC(O)(CCOP(=O)(O)OP(=O)(O)O)C(F)(F)F (stereo not shown) [F3-DPM]                  6.24
